Target: human JAK3 (Homo sapiens, UniProt P52333)
Construct: catalytic domain (amino acids 781-1124; catalog number PV3855)
Sequence (P52333 781-1124): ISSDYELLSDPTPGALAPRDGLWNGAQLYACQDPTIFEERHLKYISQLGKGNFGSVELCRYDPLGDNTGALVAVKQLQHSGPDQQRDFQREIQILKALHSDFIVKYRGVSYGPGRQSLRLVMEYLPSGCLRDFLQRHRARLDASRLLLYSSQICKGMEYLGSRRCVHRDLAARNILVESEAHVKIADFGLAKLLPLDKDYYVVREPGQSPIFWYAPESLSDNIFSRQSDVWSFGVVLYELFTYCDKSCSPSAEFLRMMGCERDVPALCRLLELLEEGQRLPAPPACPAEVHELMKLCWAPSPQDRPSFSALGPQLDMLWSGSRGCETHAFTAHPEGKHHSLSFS
Assay: JAK3 inhibition assay
Settings: recombinant human JAK3 catalytic domain; polyGT substrate
pIC50: −log10 of the molar value.
readout kind: pIC50

In the examples that follow, each entry is paired with its recorded pIC50.
INSERT INTO measurements (compound, reported) VALUES
  ('CCc1cc(C2=CCN(S(=O)(=O)CC#N)CC2)ccc1N(C)c1cc2c(cn1)ncn2C', '7.00 to 11.00'),
  ('CN(c1cc2c(cn1)ncn2C)c1ccc(C2CN(S(=O)(=O)N(C)C)C2)cc1OC(F)F', '6.30 to 7.00'),
  ('CCc1cc(C2CN(S(=O)(=O)C(F)F)C2)ccc1N(C)c1cc2c(cn1)ncn2C', '7.00 to 11.00');

Field pIC50 (entry "CCc1cc(-c2cnc(OC3COC3)nc2)ccc1N(C)c1cc2c(cn1)ncn2C" ) reads < 6.00

Notebook: "CCc1cc(C2=CCN(C(=O)C(F)F)CC2)ccc1N(C)c1cc2c(cn1)ncn2C" , pIC50 read as 7.00 to 11.00

pIC50 reading for "Cc1cc(CO)ccc1N(C)c1cc2c(cn1)ncn2C" : < 6.00

pIC50 recorded for this compound, CCc1cc(C(C#N)N2CCC(CO)CC2)ccc1N(C)c1cc2c(cn1)ncn2C (stereo not shown) , is 6.30 to 7.00

Reported pIC50 for "CCc1cc(OCC(N)=O)ccc1N(C)c1cc2c(cn1)ncn2C" was < 6.00

Sure, the documented pIC50 for "CCc1cc(CN(C)S(=O)(=O)C2CC2)ccc1N(C)c1cc2c(cn1)ncn2C" is 7.00 to 11.00

# compound "CCc1cc(CO)ccc1N(C)c1cc2c(cn1)ncn2C" ; its pIC50 = 6.30 to 7.00
